assay: In vitro cytotoxic assay, MCF-7; format: cell-based; settings: human, MCF-7 cells (breast cancer cell line); note: 0.1-25 µM tested
# IC50 at 48 h per record follows
Just the number please, in µM, no unit attached.

Some entries whose results are on file:
>>> result_number("COC(=N)c1nc2ccc3ncn(Cc4ccccc4)c(=O)c3c2s1 [Compound I, reference compound]")
17
>>> result_number("COc1cccc2c1C(=O)c1c(O)c3c(c(O)c1C2=O)C[C@@](O)(C(=O)CO)C[C@@H]3O[C@H]1C[C@H](N)[C@H](O)[C@H](C)O1 [Doxo, Doxorubicin, reference compound]")
0.05

Here's the next entry for you.
Problem: Need IC50 at 48 h, item COC(=N)c1nc2cc3ncn(Cc4ccccc4)c(=O)c3cc2s1
Result: 1

* * *

Reported property: melting point

Some entries whose results are on file:
>>> result("COc1ccc(Nc2ncnc3cc4sc(C#N)nc4cc23)c(F)c1 [Compound 14a]")
"259 to 260 °C"
>>> result("COC(=N)c1nc2cc3c(=O)n(Cc4ccccc4)cnc3cc2s1 [Compound 6a]")
"213 to 214 °C"
>>> result("COC(=N)c1nc2cc3ncnc(Nc4ccc(OC)cc4F)c3cc2s1 [Compound 15b]")
"239 to 240 °C"
>>> result("COc1ccc(Nc2ncnc3cc4nc(C#N)sc4cc23)c(F)c1 [Compound 14b]")
"255 to 256 °C"
>>> result("COC(=N)c1nc2c(ccc3c(=O)n(Cc4ccccc4)cnc32)s1 [Compound 6c]")
"213 to 214 °C"

Problem: Need melting point, item N#Cc1nc2c(ccc3c(=O)n(Cc4ccccc4)cnc32)s1 [Compound 5c]
Result: 273 to 274 °C

Problem: Now the same for COC(=N)c1nc2ccc3c(=O)n(Cc4ccccc4)cnc3c2s1 [Compound 6d]
Result: 205 to 206 °C

Problem: Now the same for COC(=N)c1nc2cc3c(Nc4ccc(OC)cc4F)ncnc3cc2s1 [Compound 15a]
Result: 246 to 247 °C

Problem: Now the same for N#Cc1nc2cc3c(=O)n(Cc4ccccc4)cnc3cc2s1 [Compound 5a]
Result: 237 to 238 °C

Problem: Now the same for N#Cc1nc2cc3ncn(Cc4ccccc4)c(=O)c3cc2s1 [Compound 5b]
Result: 217 to 218 °C
